From: the nanobody polyreactivity screen of Harvey et al. (2022)

# assay: yeast display, Sf9 membrane polyspecificity reagent, FACS + sequencing; frameworks hold sequencing errors
endpoint: polyreactivity (PSR sort gate)

QVQLVESGGVLVQAGGSLRLSSAASGRTFFRYTMGWYRQAPGKERELVAAISRSDGTTYYADSVKGRFTISRDSAKNTVYLEMNSLKPEDTAVYYCAKSLPSGYYYWGQGTQVTVSS | low polyreactivity
QVQLVESGGGLVQAGGSLRLSCAASGSTLWYNAMGWYRQGPGKERELVASITSDGGSSTYADSVKGRFTISRDNAKYTVYLQMNSLKPEDTAVYYCAADWPIVQYDYWGQGTQVTVSS | low polyreactivity
QVQLVESGGGLVQAVGSLRLSCAASGSTFDIYAMGWYRQAPGKERELVAAITSGGSTYADSVKGRFTISRDNAKNTVYLQMNSLKPEDTAVYYCNADRWFGNYLHLSFLNDYWGQGNQVTVSS | low polyreactivity
